# credit: the supplement of paper PMC10567573

Entries and their measured protein stability index follow.
B1: MMP1 (parent)
chain: MFFKDRFYMRTNPFYPEVELNFIS

# Variants of: B1
# PROCEDURE_DETAILS: protein stability index of a GFP-peptide fusion (GPS, HEK-293T) (PSI 1-6); higher = more stable;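 further: lentivirally expressed fusions sorted by FACS into six bins by GFP to DsRed ratio, PSI derived from sequencing read proportions per bin multiplied by bin number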
# CONDITION: c terminus: a fixed tail appended
Form rule: numeric answer, no unit written next to it.

{"columns": ["MUTATION_ID", "protein stability index"],
 "data": [
  ["V18D", 2.66],
  ["P16F", 2.88]
]}

In: Which measured protein stability index value corresponds to F7D ?
Out: 1.91

In: Which measured protein stability index value corresponds to F14Y ?
Out: 2.96

In: Which measured protein stability index value corresponds to R6I ?
Out: 3.27

In: Which measured protein stability index value corresponds to Y15L ?
Out: 3.33

In: Which measured protein stability index value corresponds to R6G ?
Out: 3.07

In: Which measured protein stability index value corresponds to F14V ?
Out: 3.62
